Data origin, for the record: PubChem BioAssay (NCI)

- ASSAY TEXT: NCI Yeast Anticancer Drug Screen. Data for the rad18 strain (AID 177)
- TEST CONDITIONS: S. cerevisiae rad18 mutant growth inhibition; at 11.0 µM
This is part of a sample that, as a whole, favours compounds with a hit. Of some 79,000 tested, about 15% had one in any assay. Calls of active or inactive are those of the source. Cut-off read from the data, not from the text of the source: active = growth inhibition above about 70%; inactive = the rest.
The categories you may choose from are Yes (active), No (inactive)

Problem: For C=CCNC1=C2C[C@@H](C)C[C@H](OC)[C@H](O)[C@@H](C)/C=C(\C)[C@H](OC(N)=O)[C@@H](OC)/C=C\C=C(/C)C(=O)NC(=CC1=O)C2=O , what call appears in the results of this test?
Result: No

Problem: For OC1(C#CI)CCCCC1 , what call appears in the results of this test?
Result: Yes

Problem: For CCCCCCCSCC1C(=O)C23C(O)C1CCC2C12COC3(O)C(O)C1C(C)(C)CCC2O (centres undefined) , what call appears in the results of this test?
Result: Yes

Problem: For Cc1c2cc[n+](CCO)cc2c(C)c2c1[nH]c1ccc(O)cc12 , what call appears in the results of this test?
Result: No
